B1: F1*; the commonest letter at each place (parent)
chain: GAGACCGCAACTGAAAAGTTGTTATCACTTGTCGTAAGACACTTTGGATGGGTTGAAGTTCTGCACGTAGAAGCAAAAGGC

Variants of: B1
assayInfo: fraction ligated after 30 min (ligated reads / total reads); higher = more ligase activity
conditionSet: with F1*sub RNA substrate (template-directed ligation), 42 °C
endpointLabel: fraction ligated

variantName	val
G55C	0.778
C28T T35C	0.789
T35A T45G	0.408
T25A T30A	0.32
T32A T35G	0.812
C28T A39G	0.796
A27G T49A	0.721
T23G C33T	0.893
A57T	0.844
G46T G50A	0.0502
A24C A37C	0.716
G38A A57T	0.819
C26A T45C	0.0795
C26A A48T	0.00798
A24T T32C	0.243
G34T T49C	0.633
A36C C40T	0.818
T30A G34T	0.802
C42T T45C	0.79
T43A G50C	0.153
T49C A56C	0.0481
T45C A48C	0.112
C28A T45A	0.698
A39T T44G	0.827
C26G G50A	0.0221
T35A A36G	0.857
T44A T45C	0.8
